System: Escherichia coli
Assay: minimum inhibitory concentration (MIC)
Conditions: isolate (source animal id): 152
minimum inhibitory concentration listing for selected compounds.

* CN[C@@H]1[C@H](O)[C@H](NC)[C@H]2O[C@@]3(O)C(=O)C[C@@H](C)O[C@H]3O[C@@H]2[C@H]1O | 16 µg/mL

Recorded minimum inhibitory concentration of NC[C@@H]1O[C@H](O[C@H]2[C@@H](O)[C@H](O[C@@H]3[C@@H](O)[C@H](N)C[C@H](N)[C@H]3O[C@H]3O[C@H](CN)[C@@H](O)[C@H](O)[C@H]3N)O[C@@H]2CO)[C@H](N)[C@@H](O)[C@@H]1O , please.
≤ 4 µg/mL

Recorded minimum inhibitory concentration of CCC[C@@H]1C[C@@H](C(=O)N[C@@H]([C@H]2O[C@H](SC)[C@H](O)[C@@H](O)[C@H]2O)[C@H](C)Cl)N(C)C1 , please.
> 16 µg/mL

Recorded minimum inhibitory concentration of CC1(C)S[C@@H]2[C@H](NC(=O)Cc3ccccc3)C(=O)N2[C@H]1C(=O)O , please.
> 8 µg/mL

Recorded minimum inhibitory concentration of COc1cc(NS(=O)(=O)c2ccc(N)cc2)nc(OC)n1 , please.
> 256 µg/mL

Recorded minimum inhibitory concentration of CC1(C)S[C@@H]2[C@H](NC(=O)[C@H](N)c3ccccc3)C(=O)N2[C@H]1C(=O)O , please.
2 µg/mL

Recorded minimum inhibitory concentration of CNC(C)C1CCC(N)C(OC2C(N)CC(N)C(OC3OCC(C)(O)C(NC)C3O)C2O)O1 (configuration not stated) , please.
≤ 1 µg/mL

* * *

minimum inhibitory concentration listing for selected molecules.
Tested on: Mannheimia haemolytica
Assay: minimum inhibitory concentration (MIC)
Conditions: isolate (source animal id): 112

Lookup: minimum inhibitory concentration / Mannheimia haemolytica / COc1cc(NS(=O)(=O)c2ccc(N)cc2)nc(OC)n1
> 256 µg/mL

Lookup: minimum inhibitory concentration / Mannheimia haemolytica / CC[C@H]1OC(=O)C[C@@H](O)[C@H](C)[C@@H](O[C@@H]2O[C@H](C)[C@@H](O)[C@H](N(C)C)[C@H]2O)[C@@H](CCN2C[C@H](C)C[C@H](C)C2)C[C@@H](C)C(=O)/C=C/C(C)=C/[C@@H]1CO[C@@H]1O[C@H](C)[C@@H](O)[C@@H](OC)[C@H]1OC
> 16 µg/mL

Lookup: minimum inhibitory concentration / Mannheimia haemolytica / CN(C)[C@@H]1C(O)=C(C(N)=O)C(=O)[C@@]2(O)C(O)=C3C(=O)c4c(O)cccc4[C@@](C)(O)[C@H]3C[C@@H]12
> 8 µg/mL

* * *

Test system: Pasteurella multocida
Experiment: minimum inhibitory concentration (MIC)
Conditions: isolate (source animal id): 131
VALUE_TYPE: minimum inhibitory concentration (µg/mL)
Note: unit µg/mL is implicit; provide only the numeric part.

• CNC(C)C1CCC(N)C(OC2C(N)CC(N)C(OC3OCC(C)(O)C(NC)C3O)C2O)O1 (centres undefined) = 16

# input for lookup
Recorded minimum inhibitory concentration of CC1(C)S[C@@H]2[C@H](NC(=O)Cc3ccccc3)C(=O)N2[C@H]1C(=O)O , please.
0.25

* * *

System: Mannheimia haemolytica
Test: minimum inhibitory concentration (MIC)
Settings: isolate (source animal id): 329
VALUE_TYPE: minimum inhibitory concentration (µg/mL)
Note: unit µg/mL is implicit; provide only the numeric part.

Worked set:
* CC1(C)S[C@@H]2[C@H](NC(=O)Cc3ccccc3)C(=O)N2[C@H]1C(=O)O [Penicillin] | 0.25
* CN(C)[C@@H]1C(O)=C(C(N)=O)C(=O)[C@@]2(O)C(O)=C3C(=O)c4c(O)cccc4[C@@](C)(O)[C@H]3C[C@@H]12 [Tetracycline] | 4

Recorded minimum inhibitory concentration of CCC[C@@H]1C[C@@H](C(=O)N[C@@H]([C@H]2O[C@H](SC)[C@H](O)[C@@H](O)[C@H]2O)[C@H](C)Cl)N(C)C1 [Clindamycin] , please.
16

* * *

minimum inhibitory concentration listing for selected compounds.
Tested on: Histophilus somni
Test: minimum inhibitory concentration (MIC)
Details: isolate (source animal id): 109

Worked set:
• COc1cc(Cc2cnc(N)nc2N)cc(OC)c1OC.Cc1cc(NS(=O)(=O)c2ccc(N)cc2)no1 = ≤ 2 µg/mL
• CC1(C)S[C@@H]2[C@H](NC(=O)Cc3ccccc3)C(=O)N2[C@H]1C(=O)O = ≤ 0.12 µg/mL
• NC[C@@H]1O[C@H](O[C@H]2[C@@H](O)[C@H](O[C@@H]3[C@@H](O)[C@H](N)C[C@H](N)[C@H]3O[C@H]3O[C@H](CN)[C@@H](O)[C@H](O)[C@H]3N)O[C@@H]2CO)[C@H](N)[C@@H](O)[C@@H]1O = > 32 µg/mL
• CCCN1C[C@H](C)[C@@H](O)[C@](C)(O)[C@@H](CC)OC(=O)[C@H](C)[C@@H](O[C@H]2C[C@@](C)(OC)[C@@H](O)[C@H](C)O2)[C@H](C)[C@@H](O[C@@H]2O[C@H](C)C[C@H](N(C)C)[C@H]2O)[C@](C)(O)C[C@H]1C = ≤ 1 µg/mL
• CN(C)[C@@H]1C(O)=C(C(N)=O)C(=O)[C@@]2(O)C(O)=C3C(=O)c4c(O)cccc4[C@@](C)(O)[C@H]3C[C@@H]12 = 4 µg/mL

Recorded minimum inhibitory concentration of CCN1CCN(c2cc3c(cc2F)c(=O)c(C(=O)O)cn3C2CC2)CC1 , please.
≤ 0.12 µg/mL

Recorded minimum inhibitory concentration of CNC(C)C1CCC(N)C(OC2C(N)CC(N)C(OC3OCC(C)(O)C(NC)C3O)C2O)O1 (configuration not stated) , please.
16 µg/mL

* * *

Tested on: Escherichia coli
Test: minimum inhibitory concentration (MIC)
Details: isolate (source animal id): 131
VALUE_TYPE: minimum inhibitory concentration

Worked set:
• CN(C)[C@@H]1C(O)=C(C(N)=O)C(=O)[C@@]2(O)C(O)=C3C(=O)c4c(O)cccc4[C@@](C)(O)[C@H]3C[C@@H]12 [Tetracycline] = > 8 µg/mL
• CC[C@H]1OC(=O)C[C@@H](O)[C@H](C)[C@@H](O[C@@H]2O[C@H](C)[C@@H](O[C@H]3C[C@@](C)(O)[C@@H](O)[C@H](C)O3)[C@H](N(C)C)[C@H]2O)[C@@H](CC=O)C[C@@H](C)C(=O)/C=C/C(C)=C/[C@@H]1CO[C@@H]1O[C@H](C)[C@@H](O)[C@@H](OC)[C@H]1OC [Tylosin] = > 32 µg/mL
• CC1(C)S[C@@H]2[C@H](NC(=O)[C@H](N)c3ccccc3)C(=O)N2[C@H]1C(=O)O [Ampicillin] = 2 µg/mL

# input for lookup
Recorded minimum inhibitory concentration of CS(=O)(=O)c1ccc([C@@H](O)[C@@H](CF)NC(=O)C(Cl)Cl)cc1 [Florfenicol] , please.
> 8 µg/mL

* * *

Test system: Pasteurella multocida
Assay: minimum inhibitory concentration (MIC)
Settings: isolate (source animal id): 206
VALUE_TYPE: minimum inhibitory concentration (µg/mL)
Note: unit µg/mL is implicit; provide only the numeric part.

- CC[C@H]1OC(=O)C[C@@H](O)[C@H](C)[C@@H](O[C@@H]2O[C@H](C)[C@@H](O)[C@H](N(C)C)[C@H]2O)[C@@H](CCN2C[C@H](C)C[C@H](C)C2)C[C@@H](C)C(=O)/C=C/C(C)=C/[C@@H]1CO[C@@H]1O[C@H](C)[C@@H](O)[C@@H](OC)[C@H]1OC: 8

Recorded minimum inhibitory concentration of CNC(C)C1CCC(N)C(OC2C(N)CC(N)C(OC3OCC(C)(O)C(NC)C3O)C2O)O1 (stereo not given) , please.
4

* * *

minimum inhibitory concentration listing for selected compounds.
System: Histophilus somni
Test: minimum inhibitory concentration (MIC)
Conditions: isolate (source animal id): 198
Note: unit µg/mL is implicit; provide only the numeric part.

Worked set:
* CN(C)[C@@H]1C(O)=C(C(N)=O)C(=O)[C@@]2(O)C(O)=C3C(=O)c4c(O)cccc4[C@@](C)(O)[C@H]3C[C@@H]12 [Tetracycline] | 2
* CC[C@H]1OC(=O)C[C@@H](O)[C@H](C)[C@@H](O[C@@H]2O[C@H](C)[C@@H](O[C@H]3C[C@@](C)(O)[C@@H](O)[C@H](C)O3)[C@H](N(C)C)[C@H]2O)[C@@H](CC=O)C[C@@H](C)C(=O)/C=C/C(C)=C/[C@@H]1CO[C@@H]1O[C@H](C)[C@@H](O)[C@@H](OC)[C@H]1OC [Tylosin] | 8

# input for lookup
Recorded minimum inhibitory concentration of CC[C@H]1OC(=O)C[C@@H](O)[C@H](C)[C@@H](O[C@@H]2O[C@H](C)[C@@H](O)[C@H](N(C)C)[C@H]2O)[C@@H](CCN2CCCCC2)C[C@@H](C)C(=O)/C=C/C(C)=C/[C@@H]1CN1CCCCC1 [Tildipirosin] , please.
4
